Item-by-item account of inhibition
protocolSummary: inhibitors of TNFa-induced NFkB p65 translocation, primary screen, imaging, HUVEC, MLSMR starter and 10KST1 sets (AID 438);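 note: compound added about 3h40 before a 20 min TNFalpha stimulation; signal is the nuclear over cytoplasmic p65 intensity ratio per well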
experimentalParameters: HUVEC TNFa-induced p65 nuclear translocation; at 2 µM, stronger effect = higher value, 0% TNFa-plus-vehicle, 100% no-TNFa wells
Value expressed in %; do not type the unit.

Check out these entries, answers already filled in.
CN(C)CCCOC(=O)C1c2ccccc2Oc2ccccc21 : 1.3
CCSc1nc(O)c(C2OC(=O)c3c2ccc(OC)c3OC)c(=O)n1-c1ccccc1 (centres undefined) : 5.8
O=S(=O)(c1cccc2cnccc12)N1CCCNCC1 : 4.2
CCOC(=O)c1cnc(SC2CC(=O)N(c3cccc(OC)c3)C2=O)nc1N (centres undefined) : -4.7
Cn1c(=O)c2[nH]cnc2n(C)c1=O : -1.4
NC(=O)N1c2ccccc2C=Cc2ccccc21 : -4.6
Cc1[nH]c2ccc3c(ncn3CCC#N)c2c1C : -7.5
Nc1nnnn1CC(=O)OCc1cccc(Br)c1 : -7.3
Cn1c(=O)c2c(nc(NCC(O)CO)n2CCc2ccccc2)n(C)c1=O (centres undefined) : 2
N#Cc1nc(-c2ccc(Cl)cc2)oc1N1CCCCC1 : -5.8

Q: Give the measured inhibition of `CCNC(=O)Nn1c(C)nnc1C` .
Result: 5

Q: Give the measured inhibition of COCCCNC(=O)C(C#N)c1nc2ccccc2nc1N1CCCC1 (centres undefined) .
Result: 12.6

----------
Item-by-item account of NADPH fluorescence slope
targetDesc: Voltage-gated potassium channel subunit beta-2 (Rattus norvegicus)
protocolSummary: KvBeta positive modulators, primary screen, biochemical, NADPH fluorescence (AID 623);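 note: fluorescence intensity change per second fitted from 20 to 320 s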
experimentalParameters: Recombinant KvBeta, NADPH fluorescence decrease slope, 10 min; at 10 µM; stronger effect = lower value
The source made the active and inactive calls.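 Rule for the calls: active = NADPH fluorescence slope more negative than the mean of all samples by about 3 SD, 99.7% confidence; inactive = the rest.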

Check out these entries, answers already filled in.
COCCOC(=O)C1=C(C)NC(SCC(=O)NC(C)(C)C)=C(C#N)C1c1ccco1 (stereo not given) : -4e-05 (inactive)
CCCCNc1cc(C(=O)O)cc(S(N)(=O)=O)c1Oc1ccccc1 : -6.3e-05 (inactive)
O=C(O)/C=C/c1ccc(O)c(O)c1 : -6.6e-05 (inactive)
Cc1ccc(SCc2[nH]nc3c2C(c2ccc(C)o2)C(C#N)=C(N)O3)cc1 (stereo not given) : -5.6e-05 (inactive)

Q: Give the measured NADPH fluorescence slope of `C[C@@H]1C[C@H]2[C@@H]3CCC4=CC(=O)C=C[C@]4(C)[C@@]3(F)[C@@H](O)C[C@]2(C)[C@H]1C(=O)CO` .
Result: -9.8e-05 (inactive)

----------
Item-by-item account of fluorescence slope
targetDesc: Voltage-gated potassium channel subunit beta-2 (Rattus norvegicus) (UniProt P62483)
Sequence (P62483 whole entry, looked up): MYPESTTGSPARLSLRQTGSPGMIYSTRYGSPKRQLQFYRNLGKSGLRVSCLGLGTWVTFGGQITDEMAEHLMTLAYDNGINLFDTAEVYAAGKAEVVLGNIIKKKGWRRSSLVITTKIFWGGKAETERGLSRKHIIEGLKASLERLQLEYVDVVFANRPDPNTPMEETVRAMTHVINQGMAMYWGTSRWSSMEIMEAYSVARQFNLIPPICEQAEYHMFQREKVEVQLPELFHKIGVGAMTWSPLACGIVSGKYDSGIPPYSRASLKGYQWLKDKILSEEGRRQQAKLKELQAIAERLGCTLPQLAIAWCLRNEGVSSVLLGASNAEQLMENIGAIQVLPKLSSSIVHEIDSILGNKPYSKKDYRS
protocolSummary: KvBeta enzyme negative modulators, primary screen, biochemical, NADPH fluorescence (AID 622);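 note: slope of raw intensity against log time taken from 70 to 1610 s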
experimentalParameters: recombinant KvBeta, 4-cyanobenzaldehyde reduction, at 10 µM, stronger effect = higher value
Answer with the value's number alone.

COc1cccc(-c2nnc3sc(-c4ccco4)nn23)c1 : -0.463
CCn1nc(NC(=O)c2cccnc2)c2cc3ccccc3nc21 : -0.423
COc1cccc(-c2nnc3sc(-c4ccccc4)nn23)c1 : -0.424
Cc1noc(COc2ccccc2OCC(O)CNC(C)(C)C)n1 (stereo not drawn) : -0.496
Cc1nc(-c2c(-c3ccc(O)cc3O)noc2C(F)(F)F)cs1 : -0.468
N#CC1=C(N)OC2=C(C(=O)CCC2)C1CCc1ccccc1 (stereo not drawn) : -0.527
NC(=O)c1cc(-c2ccccc2)nc(Oc2ccccc2)n1 : -0.53
CCOc1ccc(Cc2nc(N)nc(N)n2)cc1 : -0.447
COc1ccccc1N(Cc1cc2cccc(C)c2[nH]c1=O)C(=O)C(C)C : -0.449
O=C(NCC(F)(F)F)N1CCOCC1 : -0.508

Q: Give the measured fluorescence slope of `COC(=O)c1sc(NC(C)=O)c(C(=O)OC)c1C` .
Result: -0.516

Q: Give the measured fluorescence slope of `Cc1nn(C)cc1C1C2=C(CC(C)(C)CC2=O)OC2=C1C(=O)CC(C)(C)C2` .
Result: -0.337

Q: Give the measured fluorescence slope of `CN(C)CCN(Cc1ccccc1)c1ccccn1` .
Result: -0.432

----------
Item-by-item account of z-score
protocolSummary: DUSP6 inhibitors restoring Erk phosphorylation by chemical complementation, primary imaging in DUSP6-transfected HeLa (AID 609)
experimentalParameters: HeLa MKP-3 transfected, phospho-Erk imaging KS statistic; measured here: nuclear pErk red intensity z-score; at 10 µM; stronger effect = higher value; cells stimulated with TPA for 15 min
Answer with the value's number alone.

CCS(=O)(=O)CCn1c([N+](=O)[O-])cnc1C : 0.14
CCc1cn([C@H]2C[C@H](O)[C@@H](CO)O2)c(=O)[nH]c1=O : 0.506
CC(C)Sc1nc(N2CCCC2)c2c(c1C#N)CC(C)(C)OC2 : -0.539

Q: Give the measured z-score of COc1cc(C2C3C(=O)N(c4ccc(F)cc4)C(=O)C3ON2c2ccccc2)ccc1O (stereo unspecified) .
Result: 0.0709

Q: Give the measured z-score of CC1Cc2ccccc2N1NC(=O)c1ccc(Cl)c(S(N)(=O)=O)c1 (stereo unspecified) .
Result: -0.652

----------
protocolSummary: inhibitors of TNFa-induced NFkB p65 translocation, primary screen, imaging, HUVEC, MLSMR starter and 10KST1 sets (AID 438);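 note: compound added about 3h40 before a 20 min TNFalpha stimulation; signal is the nuclear over cytoplasmic p65 intensity ratio per well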
experimentalParameters: HUVEC TNFa-induced p65 nuclear translocation; at 2 µM, stronger effect = higher value, 0% TNFa-plus-vehicle, 100% no-TNFa wells
quantityMeasured: inhibition (%)
Value expressed in %; do not type the unit.

CC1(C)Cc2c(sc3ncn4nnnc4c23)CO1 : -0.9
CCN(CC)CCNC(=O)c1ccc(NC(C)=O)cc1 : -5.5

Q: Give the measured inhibition of `Oc1ccc(/C=C/c2cc(O)cc(O)c2)cc1` .
Result: 2.2

Q: Give the measured inhibition of `N#CCCN(CCC#N)c1nnc(-c2ccccc2)s1` .
Result: -3.1

Q: Give the measured inhibition of O=C1C(CCS(=O)c2ccccc2)C(=O)N(c2ccccc2)N1c1ccccc1 (stereo unspecified) .
Result: 4.4

Q: Give the measured inhibition of COC(=O)C1=C(C)N=C2SC(C)C(=O)N2C1c1cccs1 (stereo unspecified) .
Result: 3.7

Q: Give the measured inhibition of Cc1ccc(C2/C(=C(/O)c3ccc(OC(C)C)cc3)C(=O)C(=O)N2CCN2CCOCC2)cc1 (stereo unspecified) .
Result: -2

Q: Give the measured inhibition of OC1CN=C2Sc3ccccc3N2C1 (stereo unspecified) .
Result: 13.2

Q: Give the measured inhibition of `S=c1[nH]nc(-c2ccco2)n1Cc1ccccc1` .
Result: -8.2

Q: Give the measured inhibition of Cc1noc(COc2ccccc2OCC(O)CNC(C)(C)C)n1 (stereo unspecified) .
Result: -11.7

Q: Give the measured inhibition of `CCOC(=O)CNS(=O)(=O)c1cc(-c2nn(C)c(=O)c3ccccc23)ccc1C` .
Result: -1.9

Q: Give the measured inhibition of `CN1CCN(CCCN2c3ccccc3Sc3ccc(Cl)cc32)CC1` .
Result: -0.8

Q: Give the measured inhibition of `CCCc1cc(=O)oc2c(CN3CCCC3)c(O)c(Cl)cc12` .
Result: -2.3

Q: Give the measured inhibition of `C=CCn1c(=S)[nH]c2ccccc2c1=O` .
Result: 1.8

Q: Give the measured inhibition of `C/C(=C\C(=O)O)CC(=O)O` .
Result: -2.6

Q: Give the measured inhibition of `Nc1ccc(S(=O)(=O)Nc2ccccn2)cc1` .
Result: 5.6

Q: Give the measured inhibition of COc1ccc(C2C(C#N)=C(N)Oc3n[nH]c(C)c32)cc1CSc1ccccn1 (stereo unspecified) .
Result: -1.9

Q: Give the measured inhibition of CCCCCCCCNC(C)C(O)c1ccc(SC(C)C)cc1 (stereo unspecified) .
Result: -16

Q: Give the measured inhibition of `COn1c(=S)[nH]c2ccccc2c1=O` .
Result: 0.3

Q: Give the measured inhibition of Cc1ccc(C2C3CN(C(C)C)CC=C3C(C#N)=C(N)C2(C#N)C#N)cc1 (stereo unspecified) .
Result: 0.1

----------
targetDesc: Voltage-gated potassium channel subunit beta-2 (Rattus norvegicus)
protocolSummary: KvBeta enzyme negative modulators, primary screen, biochemical, NADPH fluorescence (AID 622);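 note: slope of raw intensity against log time taken from 70 to 1610 s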
experimentalParameters: recombinant KvBeta, 4-cyanobenzaldehyde reduction, at 10 µM, stronger effect = higher value
Record true whenever fluorescence slope is at -0.5 or higher; record false when lower.

Q: Is fluorescence slope for `COC(=O)c1c(C)noc1-c1cc(C)on1` at or above -0.5?
Result: false

Q: Is fluorescence slope for CCOc1nc(SC(C(C)=O)C(=O)Nc2ccccc2)nc(N(C)C)n1 (stereo unspecified) at or above -0.5?
Result: true

Q: Is fluorescence slope for `CCOC(=O)c1[nH]c2ccc(OC)cc2c1C` at or above -0.5?
Result: true
